Measured IC50 of individual entries
Biological target: DNA dC->dU-editing enzyme APOBEC-3G (Homo sapiens)
Sequence (Q9HC16 whole entry): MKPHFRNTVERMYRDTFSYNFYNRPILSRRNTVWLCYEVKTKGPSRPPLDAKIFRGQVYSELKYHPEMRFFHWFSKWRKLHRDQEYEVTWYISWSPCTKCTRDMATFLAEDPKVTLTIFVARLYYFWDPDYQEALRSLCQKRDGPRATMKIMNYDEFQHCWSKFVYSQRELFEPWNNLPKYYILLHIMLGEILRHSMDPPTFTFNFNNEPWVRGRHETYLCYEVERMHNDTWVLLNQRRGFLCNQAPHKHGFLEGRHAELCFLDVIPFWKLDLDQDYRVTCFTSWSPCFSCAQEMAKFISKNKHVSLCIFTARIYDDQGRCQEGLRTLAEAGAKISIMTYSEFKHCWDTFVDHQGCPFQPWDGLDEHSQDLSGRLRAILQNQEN
Assay: Dose Response confirmation of small molecule APOBEC3G DNA Deaminase Inhibitors via a fluorescence-based single-stranded DNA deaminase assay. [Related pubchem assays (depositor defined):AID493012, AID493028]
Assay type: functional
Calls of active or inactive are those of the source.
property-measured: IC50

[
  {
    "structure-smiles": "CCOc1ccc(C(S)=NC2CCCCC2)cc1OC",
    "recorded-result": "64.7 µM (active)"
  },
  {
    "structure-smiles": "COc1ccc(OC)c(/N=c2\\ssnc2Cl)c1",
    "recorded-result": "15.4 µM (active)"
  },
  {
    "structure-smiles": "COCc1c(N)c(C)nc(Cl)c1C#N",
    "recorded-result": "13.3 µM (active)"
  },
  {
    "structure-smiles": "Sc1nnc(-c2ccco2)n1-c1ccc(Br)cc1",
    "recorded-result": "1.5 µM (active)"
  }
]

* * *

Experiment: non-specific 3'UTR reporter inhibition in Clone20-Shn3RL – cell-based, Renilla luciferase, cherry-picked, counter-screen for Shn3 inhibitor project, dose response (AID 624133)
Format: functional
Activity calls are given as the source filed them.

[
  {
    "compound": "O=C(c1ccc(Br)cc1)C(CN1CCOCC1)c1ccccc1 (centres undefined)",
    "AC50": "10.6 µM (active)"
  },
  {
    "compound": "Cc1cc([N+](=O)[O-])ccc1-c1ccc(C2Nc3ccccc3C(=O)N2O)o1 (centres undefined)",
    "AC50": "11.3 µM (active)"
  },
  {
    "compound": "CC[n+]1c(/C=C/Nc2ccccc2)sc2ccccc21",
    "AC50": "5.83 µM (active)"
  },
  {
    "compound": "COc1ccc(CNCCc2c(C)[nH]c3ccc(OC(F)(F)F)cc23)c(OC)c1",
    "AC50": "8.45 µM (active)"
  }
]

* * *

Assay: Luminescence Cell-Based Dose Confirmation HTS to Identify Activators of 5'UTR Stem-Loop Driven Alpha-Synuclein mRNA Translation in H4 Neuroglioblastoma Cells. [Related pubchem assays: 1829 (Project Summary), 1814 (Primary HTS)]
Assay type: functional
Active and inactive are the calls of the source.

[
  {
    "structure-smiles": "C#CCSc1nnc(-c2sc(-c3ccccc3)nc2C)n1C",
    "EC50": "> 120 µM (not active)"
  },
  {
    "structure-smiles": "Sc1nnc(-c2ccc(Cl)cc2Cl)n1-c1ccccc1",
    "EC50": "15.5 µM (active)"
  },
  {
    "structure-smiles": "CCOC(=O)c1cc(O)n2c(n1)nc1ccccc12",
    "EC50": "15.8 µM (active)"
  },
  {
    "structure-smiles": "CN1C(c2ccc(F)cc2)=CS/C1=C(/C#N)c1nnc(N2CCOCC2)n1-c1ccccc1",
    "EC50": "> 120 µM (not active)"
  }
]

* * *

Molecular target: Cytochrome P450 2D6 (Homo sapiens);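 further: CYP2D6 member of a cytochrome P450 panel assay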
Sequence (P10635 whole entry): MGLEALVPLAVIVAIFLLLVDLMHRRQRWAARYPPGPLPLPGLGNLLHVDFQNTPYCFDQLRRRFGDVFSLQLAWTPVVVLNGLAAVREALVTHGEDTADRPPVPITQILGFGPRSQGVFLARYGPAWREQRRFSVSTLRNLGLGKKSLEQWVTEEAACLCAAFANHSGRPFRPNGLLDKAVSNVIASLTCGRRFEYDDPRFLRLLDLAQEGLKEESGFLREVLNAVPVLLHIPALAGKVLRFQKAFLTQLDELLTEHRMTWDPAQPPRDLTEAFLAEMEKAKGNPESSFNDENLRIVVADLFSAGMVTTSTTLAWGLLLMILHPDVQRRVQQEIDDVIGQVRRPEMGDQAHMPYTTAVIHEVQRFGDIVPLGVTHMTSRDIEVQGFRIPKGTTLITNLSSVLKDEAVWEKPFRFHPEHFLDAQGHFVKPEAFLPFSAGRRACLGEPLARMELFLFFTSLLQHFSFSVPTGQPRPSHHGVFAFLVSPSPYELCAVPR
Peptide text beside a SMILES is read from it.
property-measured: AC50

[
  {
    "compound": "O=C(NC1CCCc2ccccc21)C1CCN(S(=O)(=O)N2CCCCCC2)CC1 (stereo not given)",
    "recorded-result": "20 µM (inconclusive)"
  },
  {
    "compound": "CCc1ccc(NC(=S)N2CCN(c3cccc(C(F)(F)F)c3)CC2)cc1",
    "recorded-result": "0.01 µM (inconclusive)"
  },
  {
    "compound": "COc1ccccc1-c1cc(NCc2cnc(C)cn2)ncn1",
    "recorded-result": "20 µM (inconclusive)"
  },
  {
    "compound": "Cc1cccc(NC2=NN=C(c3ccc4c(c3)OCCO4)CS2)c1",
    "recorded-result": "17.8 µM (inconclusive)"
  },
  {
    "compound": "COC(=O)C(CC(C)C)NC(=O)C(N)Cc1ccccc1 (stereo not drawn) (H-Phe-Leu-OMe; configuration not given here)",
    "recorded-result": "15.8 µM (inconclusive)"
  }
]

* * *

# maps each entry to its EC50
Target: UniProt P38532
Sequence (P38532 whole entry): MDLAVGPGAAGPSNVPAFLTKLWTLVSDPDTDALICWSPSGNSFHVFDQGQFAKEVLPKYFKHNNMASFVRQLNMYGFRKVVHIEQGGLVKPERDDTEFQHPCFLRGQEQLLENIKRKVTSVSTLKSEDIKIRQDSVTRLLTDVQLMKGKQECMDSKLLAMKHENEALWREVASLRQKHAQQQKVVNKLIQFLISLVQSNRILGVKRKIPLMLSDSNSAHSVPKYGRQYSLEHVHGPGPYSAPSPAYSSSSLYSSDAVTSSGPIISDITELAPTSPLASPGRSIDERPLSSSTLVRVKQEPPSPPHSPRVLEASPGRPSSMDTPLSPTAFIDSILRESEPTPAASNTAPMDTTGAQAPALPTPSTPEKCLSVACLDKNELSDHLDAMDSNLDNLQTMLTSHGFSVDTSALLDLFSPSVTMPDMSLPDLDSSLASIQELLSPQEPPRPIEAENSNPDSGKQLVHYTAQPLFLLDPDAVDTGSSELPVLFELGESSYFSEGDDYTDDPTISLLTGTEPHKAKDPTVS
Experiment: decrease of HSF1-responsive luciferase luminescence – cell-based, NIH3T3, dose retest, confirmation (AID 2382);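 further: NIH3T3 fibroblasts with HSF1-driven luciferase reporter stressed by proteasome inhibitor MG132; luminescence from HSF1-driven luciferase expression after 8 hours of MG132 stress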
Type: functional
Activity calls are given as the source filed them.

[
  {
    "compound": "Cc1ccc(-n2ncc(Br)c(Br)c2=O)cc1",
    "EC50": "5.57 µM (active)"
  },
  {
    "compound": "CC(C)(C)C(CN1CCCC1)OC(=O)c1ccccc1 (stereo unspecified)",
    "EC50": "19.7 µM (active)"
  },
  {
    "compound": "COc1ccc(/N=C/c2c(O)ccc3ccccc23)cc1",
    "EC50": "35.1 µM (active)"
  },
  {
    "compound": "CCOC(=O)Cc1csc(NC(=O)c2sc3nc4ccc(CC)cc4cc3c2N)n1",
    "EC50": "> 195 µM (not active)"
  },
  {
    "compound": "CC1CN(C(=O)c2cc(S(=O)(=O)N(C)c3ccc(F)cc3)ccc2Cl)CC(C)O1 (stereo unspecified)",
    "EC50": "> 195 µM (not active)"
  },
  {
    "compound": "Cc1cn2c(nc(=O)c3cccnc32)s1",
    "EC50": "> 195 µM (not active)"
  }
]

* * *

Tested on: H4
Test: Luminescence Cell-Based Dose Response HTS to Identify Activators of 5'UTR Stem-Loop Driven Prion Protein mRNA Translation in H4 Neuroglioblastoma Cells. [Related pubchem assays: 1829 (Project Summary), 1814 (Primary HTS)]
Format: functional
Settings: Homo sapiens
Calls of active or inactive are those of the source.
property-measured: EC50

[
  {
    "compound": "COc1ccc(NC(=O)Nc2cccc3cccnc23)cc1",
    "target-entity": "H4",
    "property-measured": "EC50",
    "recorded-result": "21.2 µM (active)"
  },
  {
    "compound": "CC(C)(C)c1cc(NCCCn2ccnc2)n2ncc(-c3ccccc3)c2n1",
    "target-entity": "H4",
    "property-measured": "EC50",
    "recorded-result": "> 120 µM (not active)"
  },
  {
    "compound": "Cc1ccc(Cn2ncn(-c3ccccc3)c2=O)cc1",
    "target-entity": "H4",
    "property-measured": "EC50",
    "recorded-result": "7.14 µM (active)"
  },
  {
    "compound": "O=C1C(CSCc2ccccc2)NC(=S)N1c1ccccc1 (stereo not given)",
    "target-entity": "H4",
    "property-measured": "EC50",
    "recorded-result": "> 120 µM (not active)"
  },
  {
    "compound": "CCOC(=O)c1cc(O)n2c(n1)nc1ccccc12",
    "target-entity": "H4",
    "property-measured": "EC50",
    "recorded-result": "20.4 µM (active)"
  }
]

* * *

Target: Metabotropic glutamate receptor 5 (Rattus norvegicus)
Sequence (P31424 whole entry): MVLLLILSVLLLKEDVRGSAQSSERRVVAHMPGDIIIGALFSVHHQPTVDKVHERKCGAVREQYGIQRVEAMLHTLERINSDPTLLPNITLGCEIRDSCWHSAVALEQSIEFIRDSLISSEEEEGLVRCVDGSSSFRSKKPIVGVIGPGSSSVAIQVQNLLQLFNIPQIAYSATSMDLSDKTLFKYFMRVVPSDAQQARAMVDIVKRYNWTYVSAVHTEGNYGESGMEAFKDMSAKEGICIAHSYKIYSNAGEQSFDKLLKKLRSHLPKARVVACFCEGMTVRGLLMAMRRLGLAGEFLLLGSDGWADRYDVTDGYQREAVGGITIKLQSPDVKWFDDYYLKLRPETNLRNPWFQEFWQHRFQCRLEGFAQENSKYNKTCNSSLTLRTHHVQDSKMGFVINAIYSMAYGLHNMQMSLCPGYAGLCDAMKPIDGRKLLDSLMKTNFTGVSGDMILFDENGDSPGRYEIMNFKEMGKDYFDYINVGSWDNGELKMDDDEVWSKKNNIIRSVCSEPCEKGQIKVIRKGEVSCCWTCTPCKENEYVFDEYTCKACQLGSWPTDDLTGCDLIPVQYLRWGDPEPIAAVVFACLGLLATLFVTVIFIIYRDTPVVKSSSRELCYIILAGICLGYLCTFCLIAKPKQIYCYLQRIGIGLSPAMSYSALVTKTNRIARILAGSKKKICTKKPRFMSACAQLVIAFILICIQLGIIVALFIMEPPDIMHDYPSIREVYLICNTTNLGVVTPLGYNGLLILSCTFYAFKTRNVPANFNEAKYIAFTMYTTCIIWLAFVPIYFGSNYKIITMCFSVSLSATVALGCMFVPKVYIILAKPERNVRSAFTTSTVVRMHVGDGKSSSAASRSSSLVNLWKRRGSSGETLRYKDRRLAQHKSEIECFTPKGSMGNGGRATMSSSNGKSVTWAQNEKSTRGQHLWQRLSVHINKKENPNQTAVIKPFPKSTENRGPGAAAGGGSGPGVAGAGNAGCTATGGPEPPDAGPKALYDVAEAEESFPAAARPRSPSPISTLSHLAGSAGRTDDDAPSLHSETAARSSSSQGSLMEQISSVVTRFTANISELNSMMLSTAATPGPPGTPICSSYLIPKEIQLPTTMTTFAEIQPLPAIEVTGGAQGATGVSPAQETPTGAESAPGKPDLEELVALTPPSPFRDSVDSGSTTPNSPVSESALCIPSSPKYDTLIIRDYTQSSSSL
Experiment: Identification of a glycine sulfonamide based non-MPEP site positive allosteric potentiator (PAM) of mGlu5 (calcium_assay).
pEC50: −log10 of the molar value.
property-measured: pEC50

[
  {
    "structure-smiles": "CS(=O)(=O)N(CC(=O)Nc1ccc(F)cc1F)c1cc(C(F)(F)F)ccc1Cl",
    "property-measured": "pEC50",
    "recorded-result": 5.62
  }
]

* * *

Test system: Streptococcus
Test: GAS UMAA2166 growth inhibition – luminescence, BacTiterGlo, counter-screen for streptokinase expression inhibitor project, dose response (AID 1915);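 further: potency for reduction of bacterial viability or growth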
Type: functional, organism-based
Active and inactive are the calls of the source.
EC50 values, listed per item
property-measured: EC50

[
  {
    "compound": "CC(C)CC(=O)Nc1ccc(C(=O)NNC(=S)NC(=O)C2CCCCC2)cc1",
    "recorded-result": "5.23 µM (active)"
  },
  {
    "compound": "Cc1cc(NC(=O)c2ccc(C)s2)n(-c2nc3ccccc3[nH]2)n1",
    "recorded-result": "5.48 µM (active)"
  },
  {
    "compound": "O=C(CCCCCNC(=O)c1ccccc1)N=Nc1c(O)[nH]c2c(Br)cc(Br)cc12",
    "recorded-result": "28.4 µM (active)"
  },
  {
    "compound": "CC(C)c1ccc(NC(=O)c2cc(S(=O)(=O)NCC3COc4ccccc4O3)ccc2F)cc1 (centres undefined)",
    "recorded-result": "74.4 µM (active)"
  }
]
